// data source = ChEMBL document CHEMBL1143206

Property Measured: pKi
pKi here is simply -log10 of the concentration when that concentration is written in mol/L.

### Prompt Tell me reported pKi for NS(=O)(=O)c1ccc(CNC(=O)CN(CCN(CC(=O)O)CC(=O)NCc2ccc(S(N)(=O)=O)cc2)CC(=O)O)cc1 , tested with Carbonic anhydrase 9 (Homo sapiens, UniProt Q16790).
### Response 8.14

### Prompt // lookup pKi | system=Carbonic anhydrase 9 (Homo sapiens, UniProt Q16790) | key= NS(=O)(=O)c1ccc(NC(=O)CN(CCN(CCN(CC(=O)O)CC(=O)Nc2ccc(S(N)(=O)=O)cc2)CC(=O)O)CC(=O)O)cc1
### Response 8.08

### Prompt Hello, I am looking for reported pKi with Carbonic anhydrase 9 (Homo sapiens, UniProt Q16790) for NS(=O)(=O)c1ccc(CCNC(=O)CN(CCN(CC(=O)O)CC(=O)NCCc2ccc(S(N)(=O)=O)cc2)CC(=O)O)cc1 . Could you help?
### Response 8.09

### Prompt For Carbonic anhydrase 9 (Homo sapiens, UniProt Q16790), provide pKi of NS(=O)(=O)c1nnc(NC(=O)CN(CCN(CC(=O)O)CC(=O)Nc2nnc(S(N)(=O)=O)s2)CC(=O)O)s1 please.
### Response 8.07
